assay: Optical properties: excitation/emission maxima and absolute fluorescence quantum yield; assay type: physicochemical; details: PBS pH 7.4
Max Ex: recorded values
assay_readout: Max Ex (nm)

compound: CC1(C)C(/C=C/C=C/C=C/C=C2\N(CCCCS(=O)(=O)O)c3ccc4ccccc4c3C2(C)C)=[N+](CCCCS(=O)(=O)[O-])c2ccc3ccccc3c21 [ICG, Indocyanine Green, reference compound]
result_number: 780
//
compound: CC(CC[N+]1=C(/C=C/C=C/C=C/C=C2/N(CCCCCC(=O)NCC3C[C@@H]4CC[C@H]5C(=O)N[C@@H](CCCNC(=N)N)C(=O)NCC(=O)N[C@@H](CC(=O)O)C(=O)N[C@H]3C(=O)N45)c3ccc(C(=O)NCC(O)C(O)C(O)C(O)CO)cc3C2(C)C)C(C)(C)c2cc(C(=O)NCC(O)C(O)C(O)C(O)CO)ccc21)S(=O)(=O)[O-] (stereo partly shown)
result_number: 757
//
compound: CC1(C)C(/C=C/C=C/C=C2/N(CCCCCC(=O)O)c3ccc(C(=O)NC(CO)(CO)CO)cc3C2(C)C)=[N+](CCCCS(=O)(=O)[O-])c2ccc(C(=O)NC(CO)(CO)CO)cc21
result_number: 655
//
compound: CC(CC[N+]1=C(/C=C/C=C/C=C/C=C2/N(CCCCCC(=O)O)c3ccc(C(=O)NCC(O)C(O)C(O)C(O)CO)cc3C2(C)C)C(C)(C)c2cc(C(=O)NCC(O)C(O)C(O)C(O)CO)ccc21)S(=O)(=O)[O-] (stereo not shown)
result_number: 755
//
compound: CC1(C)C(/C=C/C=C/C=C2/N(CCCCCC(=O)O)c3ccc(C(=O)NCC(O)C(O)C(O)C(O)CO)cc3C2(C)C)=[N+](CCCCS(=O)(=O)[O-])c2ccc(C(=O)NCC(O)C(O)C(O)C(O)CO)cc21 (stereo not shown)
result_number: 656
//
compound: CN1/C(=C/C=C/C=C/C2=[N+](CCCCCC(=O)O)c3ccc(S(=O)(=O)[O-])cc3C2(C)C)C(C)(C)c2cc(S(=O)(=O)O)ccc21 [Sulfo-Cy5, reference compound]
result_number: 645
//
compound: CC(CC[N+]1=C(/C=C/C=C/C=C/C=C2/N(CCCCCC(=O)NCCCC[C@@H]3NC(=O)C(Cc4ccccc4)NC(=O)[C@H](CC(=O)O)NC(=O)CNC(=O)[C@H](CCCNC(=N)N)NC3=O)c3ccc(C(=O)NCC(O)C(O)C(O)C(O)CO)cc3C2(C)C)C(C)(C)c2cc(C(=O)NCC(O)C(O)C(O)C(O)CO)ccc21)S(=O)(=O)[O-] (stereo partly shown)
result_number: 757

====

experiment: Optical properties: excitation/emission maxima and absolute fluorescence quantum yield; format: physicochemical; conditions: PBS pH 7.4

molecule: CC1(C)C(/C=C/C=C/C=C2/N(CCCCCC(=O)O)c3ccc(C(=O)NC(CO)(CO)CO)cc3C2(C)C)=[N+](CCCCS(=O)(=O)[O-])c2ccc(C(=O)NC(CO)(CO)CO)cc21
Max Em (nm): 675

molecule: CC(CC[N+]1=C(/C=C/C=C/C=C/C=C2/N(CCCCCC(=O)NCCCC[C@@H]3NC(=O)C(Cc4ccccc4)NC(=O)[C@H](CC(=O)O)NC(=O)CNC(=O)[C@H](CCCNC(=N)N)NC3=O)c3ccc(C(=O)NCC(O)C(O)C(O)C(O)CO)cc3C2(C)C)C(C)(C)c2cc(C(=O)NCC(O)C(O)C(O)C(O)CO)ccc21)S(=O)(=O)[O-] (stereo partly shown)
Max Em (nm): 786

molecule: CC1(C)C(/C=C/C=C/C=C2/N(CCCCCC(=O)O)c3ccc(C(=O)NCC(O)C(O)C(O)C(O)CO)cc3C2(C)C)=[N+](CCCCS(=O)(=O)[O-])c2ccc(C(=O)NCC(O)C(O)C(O)C(O)CO)cc21 (stereo not shown)
Max Em (nm): 675

molecule: CC1(C)C(/C=C/C=C/C=C/C=C2\N(CCCCS(=O)(=O)O)c3ccc4ccccc4c3C2(C)C)=[N+](CCCCS(=O)(=O)[O-])c2ccc3ccccc3c21 [ICG, Indocyanine Green, reference compound]
Max Em (nm): 810

molecule: CC(CC[N+]1=C(/C=C/C=C/C=C/C=C2/N(CCCCCC(=O)NCC3C[C@@H]4CC[C@H]5C(=O)N[C@@H](CCCNC(=N)N)C(=O)NCC(=O)N[C@@H](CC(=O)O)C(=O)N[C@H]3C(=O)N45)c3ccc(C(=O)NCC(O)C(O)C(O)C(O)CO)cc3C2(C)C)C(C)(C)c2cc(C(=O)NCC(O)C(O)C(O)C(O)CO)ccc21)S(=O)(=O)[O-] (stereo partly shown)
Max Em (nm): 785

molecule: CC(CC[N+]1=C(/C=C/C=C/C=C/C=C2/N(CCCCCC(=O)O)c3ccc(C(=O)NCC(O)C(O)C(O)C(O)CO)cc3C2(C)C)C(C)(C)c2cc(C(=O)NCC(O)C(O)C(O)C(O)CO)ccc21)S(=O)(=O)[O-] (stereo not shown)
Max Em (nm): 785

molecule: CN1/C(=C/C=C/C=C/C2=[N+](CCCCCC(=O)O)c3ccc(S(=O)(=O)[O-])cc3C2(C)C)C(C)(C)c2cc(S(=O)(=O)O)ccc21 [Sulfo-Cy5, reference compound]
Max Em (nm): 665
